- assay_details: MRT (0 to t) in mouse at 15 mg/kg, po measured upto 24 hrs by LC-MS/MS analysis
- Format: ADME, organism-based
- condition_notes: in vivo
measured_parameter: MRT last at 24 h

INPUT: Determine from records and report MRT last at 24 h for COc1cc(-n2cnc3ccc(-c4ccc(C)c(N)c4)nc32)cc(OC)c1OC
OUTPUT: 1.83 h

###

- experimental_target: Katanin p60 ATPase-containing subunit A1 (Homo sapiens, UniProt O75449)
- Sequence (O75449 whole entry, the tested form may be a part): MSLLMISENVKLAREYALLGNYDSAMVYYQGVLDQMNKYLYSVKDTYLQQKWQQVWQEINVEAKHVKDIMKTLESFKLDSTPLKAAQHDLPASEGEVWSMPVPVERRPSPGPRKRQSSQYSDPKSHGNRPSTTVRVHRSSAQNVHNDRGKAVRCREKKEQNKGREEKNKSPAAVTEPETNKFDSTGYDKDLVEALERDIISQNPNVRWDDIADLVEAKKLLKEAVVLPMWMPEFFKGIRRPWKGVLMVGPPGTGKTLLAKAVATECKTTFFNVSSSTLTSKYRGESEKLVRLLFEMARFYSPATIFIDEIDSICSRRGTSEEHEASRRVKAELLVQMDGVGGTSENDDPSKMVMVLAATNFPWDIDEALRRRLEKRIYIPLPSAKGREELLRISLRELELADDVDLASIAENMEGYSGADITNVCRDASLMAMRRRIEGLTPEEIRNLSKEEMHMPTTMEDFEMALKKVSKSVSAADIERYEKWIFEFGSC
- assay_details: Binding affinity to N-terminal human Katanin p60 (8 to 229 residues) expressed in Escherichia coli Rosetta (DE3) assessed as dissociation constant by SPR analysis
measured_parameter: Kd (µM)
Give just the number in µM; leave the unit off.

| molecule_smiles | experimental_value |
| --- | --- |
| COc1ccc(-c2cc3c([nH]c(=O)n3-c3cc(OC)c(OC)c(OC)c3)c(C(N)=O)n2)cc1O | 9.16 |

INPUT: For COc1cc(-n2cnc3ccc(-c4ccc(C)c(N)c4)nc32)cc(OC)c1OC , write its Kd.
OUTPUT: 1.81

###

- assay_details: Tmax in mouse at 3 mg/kg, iv measured upto 24 hrs by LC-MS/MS analysis
- Assay type: ADME, organism-based
- condition_notes: in vivo
measured_parameter: Tmax (min)
# value in min; strip the unit string

INPUT: # return recorded Tmax for input COc1cc(-n2cnc3ccc(-c4ccc(C)c(N)c4)nc32)cc(OC)c1OC
OUTPUT: 4.8

###

- Tested on: A2780
- assay_details: Antiproliferative activity against human A2780 cells assessed as inhibition of cell growth measured after 48 hrs by MTT assay
- Format: functional, cell-based
- condition_notes: A2780, 48 h
measured_parameter: IC50 (nM)
The figure you give is taken to be in nM; do not add the unit.

| molecule_smiles | unit_string | IC50 |
| --- | --- | --- |
| COc1cc2c(c(OC)c1OC)-c1ccc(OC)c(=O)cc1[C@@H](NC(C)=O)CC2 | nM | 13 |

Kindly review the next molecule as well.
INPUT: Would you please give the reported IC50 of COc1cc(-n2cnc3ccc(-c4ccc(C)c(N)c4)nc32)cc(OC)c1OC with A2780?
OUTPUT: 3

###

Items are presented alongside their recorded Ratio IC50.
- assay_details: Resistance index, ratio of IC50 for antiproliferative activity against human A549/Taxol cells to IC50 for antiproliferative activity against human A549 cells
- Format: functional
Please give only the number in your answer, with no unit.

| molecule_smiles | Ratio IC50 |
| --- | --- |
| COc1cc(-n2cnc3ccc(-c4ccc(C)c(N)c4)nc32)cc(OC)c1OC | 1.45 |

INPUT: Using known records, supply Ratio IC50 for COc1ccc(/C=C\c2cc(OC)c(OC)c(OC)c2)cc1O
OUTPUT: 3.25

###

- assay_details: AUC (0 to t) in mouse at 15 mg/kg, po measured upto 24 hrs by LC-MS/MS analysis
- Type: ADME, organism-based
- condition_notes: in vivo
measured_parameter: AUC(0-t) at 24 h (ng·h/mL)
Please reply with the bare figure in ng·h/mL and do not write the unit itself.

INPUT: Supply reported AUC(0-t) at 24 h belonging to this compound: COc1cc(-n2cnc3ccc(-c4ccc(C)c(N)c4)nc32)cc(OC)c1OC
OUTPUT: 1240
